B1: glmS ribozyme (parent)
chain: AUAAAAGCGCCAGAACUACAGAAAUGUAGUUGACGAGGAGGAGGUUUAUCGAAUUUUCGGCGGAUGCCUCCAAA

variants of: B1; test: self-cleavage kobs at 2500 uM GlcN6P; higher = faster cleavage; RNA array; details: with glucosamine-6-phosphate
This sample holds only a part of the variants without activity.
Kindly note that classification relies on self-cleavage kobs at 2500 uM GlcN6P with these boundaries: bucket 1 (below 0.0001 s⁻¹), bucket 2 (0.0001 s⁻¹ to below 0.001 s⁻¹), bucket 3 (0.001 s⁻¹ or more)

Asked: Field: class (self-cleavage kobs at 2500 uM GlcN6P) — entry: AUAAAAGCGCCAGAGCUACAGAAAUGUAGUUGACGAGGAGGAGGUUUAUCGAGUUUUCGGCGGAUGCCUCCAAA [A15G A53G]
Given back: bucket 3

Asked: Field: class (self-cleavage kobs at 2500 uM GlcN6P) — entry: AUAAAAGCGCAAGAACUACAGAAAUGUAGAUGACGAGGAGGAGGUUUAUCGAAUUUUCGGCGGAUGCCUCCAAA [C11A U30A]
Given back: bucket 2

Asked: Field: class (self-cleavage kobs at 2500 uM GlcN6P) — entry: AUAAAAGCGCCAGAACUACAGAAAUGUAGUUGACGAGGAGGAGGUUUAUCGAAUUUUCGGCGGAUGCCUCAAAA [C71A]
Given back: bucket 3

Asked: Field: class (self-cleavage kobs at 2500 uM GlcN6P) — entry: AUAAAAGCGCCAGGACUACAGAAAUGUAGUUGACGAGGAGGAGGAUUAGCGAAUUUUCGGCGGAUGCCUCCAAA [A14G U45A U49G]
Given back: bucket 3

Asked: Field: class (self-cleavage kobs at 2500 uM GlcN6P) — entry: AUAAAAGCGCCCGAACUACAGAAAUGUAGUUGACGAGGAGGAGGUUUAUCGAAUUUUCGGCGAAUGCCUCCAAA [A12C G63A]
Given back: bucket 1

Asked: Field: class (self-cleavage kobs at 2500 uM GlcN6P) — entry: AUAAAAGCGCCAGGACUACAGAAAUGUAGCUGACGAGGCGGAGGUUUAUCGAAAUUUCGGCGGAUGCCUCCAAA [A14G U30C A39C U54A]
Given back: bucket 2

Asked: Field: class (self-cleavage kobs at 2500 uM GlcN6P) — entry: AUAAAAGCGCCAGAACUACAGAAAUGUAGUUGACGAGGAGUAGGUUUAUCGAAGUGUCGACGGAUGCCUACAAA [G41U U54G U56G G60A C70A]
Given back: bucket 1

Asked: Field: class (self-cleavage kobs at 2500 uM GlcN6P) — entry: AUAAAAGCGCCAGAACUACAGAAAUGUAGUUGACGAGGAGGAGGUUUAUCGAGUGUUCGGCGGAUGCCUCCAAA [A53G U55G]
Given back: bucket 3

Asked: Field: class (self-cleavage kobs at 2500 uM GlcN6P) — entry: AUAAACGUGCCAGAACUACAGAAAUGUAGUUGACGAGCAGGAGGUUUAUCCAAUUUUCGGCGGAUGCCUCCAAA [A6C C8U G38C G51C]
Given back: bucket 1

Asked: Field: class (self-cleavage kobs at 2500 uM GlcN6P) — entry: AUAAAAGCGCCUGAACUACAGAAAUGUAGUUGACGAGGAGGAGGUUUAUCGAAUUAUCGGCGGAUGCAUCCAAA [A12U U56A C68A]
Given back: bucket 1

Asked: Field: class (self-cleavage kobs at 2500 uM GlcN6P) — entry: AUAAAAGCGCCAGAAGUACAGAAAUGUAGUUGACGUGGAGGAGGUUUAUCGAAUUUUCGGCGGAUGCCUCCAAA [C16G A36U]
Given back: bucket 1

Asked: Field: class (self-cleavage kobs at 2500 uM GlcN6P) — entry: AUAAAAGCGCCAGAAUUACAGAAAUGUAGUUGACGAGGAGGAGGUUUAUCGAAUUUUCGGCGGAUGCCUUCAAA [C16U C70U]
Given back: bucket 3

Asked: Field: class (self-cleavage kobs at 2500 uM GlcN6P) — entry: AUAAAAGCGCCAGAACUACAGAAAUGUAGUUGACGAGAAGGAGGUUUAUCGGAUUUACGGCGGAUGCAUCCAAA [G38A A52G U57A C68A]
Given back: bucket 1

Asked: Field: class (self-cleavage kobs at 2500 uM GlcN6P) — entry: AUAAAAGCGCCAGAACUACAGAAAUGUACUUGACGAGGAGGAGGUGUAUCGAAUUUUCGGCGGAUGCCUCCAAA [G29C U46G]
Given back: bucket 2

Asked: Field: class (self-cleavage kobs at 2500 uM GlcN6P) — entry: AUAAAAGCGACAGAACUACAGAAAUGUAGCUGACGAGGAGGAGGUUUAUCGAAUCUUCGGCGGAUGCCUCCAAA [C10A U30C U55C]
Given back: bucket 1

Asked: Field: class (self-cleavage kobs at 2500 uM GlcN6P) — entry: AUAAAAUCGCCAGAACUACAGAAAUGUAGUUGACGAGGAGGAGGUUUAGCGAAUUUUCGGCGGAUGCCUCCAAA [G7U U49G]
Given back: bucket 1

Asked: Field: class (self-cleavage kobs at 2500 uM GlcN6P) — entry: AUAAAAGCGCCAGAACUACAGAAAUGUAGUCGACGAGGAGGAGGUUUACCGAAUUUUCGGCGGAGGCCUCCAAA [U31C U49C U65G]
Given back: bucket 1

Asked: Field: class (self-cleavage kobs at 2500 uM GlcN6P) — entry: AUAAAAGCGCCAGAUCUACAGAAAUGUAGUUGACGAGGAGGAGGUUUAUCGAAUUUUCGGCGGAGGCCUCCAAA [A15U U65G]
Given back: bucket 2

Asked: Field: class (self-cleavage kobs at 2500 uM GlcN6P) — entry: AUAAAAGCGCCAGAACUACAGAAAUGUAGUUGACGAGGAGGAGGUUGAUCGAAUUUGCGGCGGAUGCCUCCAAA [U47G U57G]
Given back: bucket 1

Asked: Field: class (self-cleavage kobs at 2500 uM GlcN6P) — entry: AUAAAAGCGCCAGAACUACAGAAAUGUAGAUGACGAGGGGGAGGUUUAUCGAAUUUUCGGCGGAUGCCUUCAAA [U30A A39G C70U]
Given back: bucket 3
